All values here come from ChEMBL document CHEMBL5360672.

# experimental_target: Estrogen receptor beta (Homo sapiens)
# assay_summary: Binding affinity to human ERbeta assessed as relative binding affinity incubated under vibration for 1 min followed by 2 hrs incubation under dark condition by fluorescence polarization assay relative to estradiol
# settings: time 121.0 min
For each entry below, report its RBA value.
Answers are plain numbers, in %.

Some entries whose results are on file:
[
  {
    "compound": "N#C[Se]CCCCCC(=O)Nc1ccc(C2=C(c3ccc(O)cc3)C3CC(S(=O)(=O)Oc4ccccc4Br)C2O3)cc1 (stereo unspecified)",
    "experimental_target": "Estrogen receptor beta (Homo sapiens)",
    "RBA [%]": 0.18
  },
  {
    "compound": "N#C[Se]CCCCCC(=O)Nc1ccc(C2=C(c3ccc(O)cc3)C3CC(S(=O)(=O)Oc4ccccc4)C2O3)cc1 (stereo unspecified)",
    "experimental_target": "Estrogen receptor beta (Homo sapiens)",
    "RBA [%]": 0.78
  }
]

Give RBA for all compounds that follow.
1. N#C[Se]CCCCCC(=O)Nc1ccc(C2=C(c3ccc(O)cc3)C3CC(S(=O)(=O)Oc4ccc(Cl)cc4)C2O3)cc1 (stereo unspecified)
2. N#C[Se]CCCCCC(=O)Nc1ccc(C2=C(c3ccc(O)cc3)C3CC(S(=O)(=O)Oc4cccc(C(F)(F)F)c4)C2O3)cc1 (stereo unspecified)
3. N#C[Se]CCCCCC(=O)Nc1ccc(C2=C(c3ccc(O)cc3)C3CC(S(=O)(=O)Oc4ccc(Br)cc4)C2O3)cc1 (stereo unspecified)
4. Cc1cccc(OS(=O)(=O)C2CC3OC2C(c2ccc(NC(=O)CCCCC[Se]C#N)cc2)=C3c2ccc(O)cc2)c1 (stereo unspecified)
5. CCN(c1ccc(OC)cc1)S(=O)(=O)C1CC2OC1C(c1ccc(NC(=O)CCCCC[Se]C#N)cc1)=C2c1ccc(O)cc1 (stereo unspecified)
6. N#C[Se]CCCCCC(=O)Nc1ccc(C2=C(c3ccc(O)cc3)C3CC(S(=O)(=O)N(CC(F)(F)F)c4cccc(Cl)c4)C2O3)cc1 (stereo unspecified)
7. COc1ccccc1OS(=O)(=O)C1CC2OC1C(c1ccc(NC(=O)CCCCC[Se]C#N)cc1)=C2c1ccc(O)cc1 (stereo unspecified)
8. N#C[Se]CCCCCC(=O)Nc1ccccc1

2.64
0.3
3.48
1.29
0.01
0.06
1.29
0.01

Name the reported RBA value associated with the compound N#C[Se]CCCCCC(=O)Nc1ccc(C2=C(c3ccc(O)cc3)C3CC(S(=O)(=O)Oc4cccc(Br)c4)C2O3)cc1 (stereo unspecified)
0.31
